Where these numbers come from: the supplement of paper PMC11451515

System: P12-Ichikawa
Method notes: AUC of viability dose-response curve (% viability x log10 dose units); higher = less sensitive
Experimental context: RPMI 5 mM glucose + 10% FBS; 48 h
Measured parameter: AUC of viability dose-response curve

Worked cases, answers included:
>  <Smiles text>
CCCCNc1cc(C(=O)O)cc([S+](N)(=O)[O-])c1Oc1ccccc1

>  <Measured parameter>
AUC of viability dose-response curve

>  <Val>
465

$$$$
>  <Smiles text>
Oc1ccc(C2CCN(c3ccnc4ccccc34)CC2)cc1O

>  <Measured parameter>
AUC of viability dose-response curve

>  <Val>
418

$$$$
>  <Smiles text>
C=C1/C(=C\C=C2/CCC[C@]3(C)[C@@H]([C@H](C)/C=C/[C@H](C)C(C)C)CC[C@@H]23)C[C@@H](O)C[C@@H]1O

>  <Measured parameter>
AUC of viability dose-response curve

>  <Val>
404

$$$$

Now let's try a different one.
Returns the measured AUC of viability dose-response curve for the input molecule. Input: NC(CO)(CO)CCc1ccc(Sc2cccc(OCc3ccccc3)c2)cc1Cl
408

====

Reported cell viability values for the following compounds.
Test system: NOMO1
Method notes: cell viability relative to DMSO control; higher = less cytotoxic
Experimental context: RPMI 5 mM glucose + 10% dialyzed FBS; 48 h; 0.0632 µM
Just the number please, in %, no unit attached.

Worked cases, answers included:
>  <Compound>
C[S+](=O)([O-])N(Cc1ccco1)CC(O)Cn1c2ccccc2c2ccccc21 (stereo not drawn)

>  <Assayed system>
NOMO1

>  <Measured parameter>
cell viability

>  <Val>
93.3

$$$$
>  <Compound>
NC(=O)c1ncn([C@@H]2O[C@H](CO)[C@@H](O)[C@H]2O)n1

>  <Assayed system>
NOMO1

>  <Measured parameter>
cell viability

>  <Val>
114

$$$$
>  <Compound>
O=C1C[C@@H](c2ccc(O)cc2)Oc2cc(O)cc(O)c21

>  <Assayed system>
NOMO1

>  <Measured parameter>
cell viability

>  <Val>
120

$$$$
>  <Compound>
CCOC(=O)N1CCN(/[N+]([O-])=N/Oc2ccc([N+](=O)[O-])cc2[N+](=O)[O-])CC1

>  <Assayed system>
NOMO1

>  <Measured parameter>
cell viability

>  <Val>
99.7

$$$$
>  <Compound>
C=CC1=C(C(=O)O)N2C(=O)[C@@H](NC(=O)/C(=N\O)c3csc(N)n3)[C@H]2SC1

>  <Assayed system>
NOMO1

>  <Measured parameter>
cell viability

>  <Val>
119

$$$$
>  <Compound>
O=C(Nc1cccc(Nc2ncc(Br)c(NCCc3cnc[nH]3)n2)c1)N1CCCC1

>  <Assayed system>
NOMO1

>  <Measured parameter>
cell viability

>  <Val>
113

$$$$

Now let's try a different one.
Returns the measured cell viability for the input compound. Input: C1CCC(C(CC2CCCCN2)C2CCCCC2)CC1 (stereo not drawn)
114

====

Test system: SEM cells
Method notes: cell viability relative to DMSO control; higher = less cytotoxic
Experimental context: RPMI 5 mM glucose + 10% dialyzed FBS; 48 h; 0.569 µM
Measured parameter: cell viability (%)
Just the number please, in %, no unit attached.

Worked cases, answers included:
>  <Smiles text>
CC(C)(C)C(=O)OCOP(=O)(COCCn1cnc2c(N)ncnc21)OCOC(=O)C(C)(C)C

>  <Unit label>
%

>  <Val>
42.2

$$$$
>  <Smiles text>
COc1cc2c(Oc3ccc(NC(=O)C4(C(=O)Nc5ccc(F)cc5)CC4)cc3F)ccnc2cc1OCCCN1CCOCC1

>  <Unit label>
%

>  <Val>
25.7

$$$$
>  <Smiles text>
CC\1=C(C(=O)N(\C=C1)C2=CC=C(C=C2)C3=NC=CO3)/C4=CC5=CN=C(N)N=C5C=C4

>  <Unit label>
%

>  <Val>
68.9

$$$$

Returns the measured cell viability for the input molecule. Input: CC(=O)N1CCN(c2ccc(OCc3nn(C)c(C)c3-c3cccc4c(CCCOc5cccc6ccccc56)c(C(=O)O)n(Cc5cccnc5)c34)cc2)CC1
112

Returns the measured cell viability for the input molecule. Input: CC(C)Oc1cc(Nc2nc(N[C@@H](C)c3ccc(F)cn3)ncc2Cl)n[nH]1
43.4

Returns the measured cell viability for the input molecule. Input: O=C(/C=C/c1cccc([S+](=O)([O-])Nc2ccccc2)c1)NO
52

Returns the measured cell viability for the input molecule. Input: CC[C@H]1/C=C\C=C/C[C@@H](C)[C@H](O)[C@@](C)(O)C(=O)[C@@H](C)[C@H](O)[C@@H](C)C(=O)[C@@H](C)[C@H](O)[C@@H](C)/C=C/C(=O)O[C@@H]2[C@H](C)[C@H](CC1)O[C@]1(CC[C@H](C)[C@H](C[C@@H](C)O)O1)[C@H]2C
100

Returns the measured cell viability for the input molecule. Input: C[C@@H]1COCCN1C\2=C\C(=O)N\3CC[C@H](N(CC4=CN=CC(=C4)Cl)C3=N2)C(F)(F)F
107

Returns the measured cell viability for the input molecule. Input: C[C@@]12O[C@@H](C[C@]1(O)CO)n1c3ccccc3c3c4c(c5c6ccccc6n2c5c31)CNC4=O
20.2

Returns the measured cell viability for the input molecule. Input: C[C@H]1C[C@H]2[C@@H]3CCC4=CC(=O)C=C[C@]4(C)[C@@]3(F)[C@@H](O)C[C@]2(C)[C@@]1(O)C(=O)CO
72.3

Returns the measured cell viability for the input molecule. Input: Cc1ncc(OC[C@@]2(c3cccc(F)c3)C[C@H]2C(=O)Nc2ccc(F)cn2)c(C)n1
108

Returns the measured cell viability for the input molecule. Input: N=C(N)NC(=O)c1nc(Cl)c(N)nc1N
120

Returns the measured cell viability for the input molecule. Input: Cc1cccc(C)c1OCC(=O)N[C@@H](Cc1ccccc1)[C@@H](O)C[C@H](Cc1ccccc1)NC(=O)[C@H](C(C)C)N1CCCNC1=O
107

Returns the measured cell viability for the input molecule. Input: Oc1ccc(C2CCN(c3ccnc4ccccc34)CC2)cc1O
88.7

Returns the measured cell viability for the input molecule. Input: O=C(CO)N1CCC(c2n[nH]c(-c3ccc(Cl)cc3)c2-c2ccncn2)CC1
128

Returns the measured cell viability for the input molecule. Input: C\C1=C\C(=O)C2=C(C=CC=C2)C1=O
117

Returns the measured cell viability for the input molecule. Input: CCCCCCCc1ccc(CCc2cccc(O)c2C(=O)O)cc1
134

====

Reported cell viability values for the following molecules.
System: NOMO1
Method notes: cell viability relative to DMSO control; higher = less cytotoxic
Experimental context: HPLM + 10% dialyzed FBS; 48 h; 5.12 µM
Just the number please, in %, no unit attached.

Worked cases, answers included:
>  <Smiles text>
CC(C)Nc1cc(C(F)(F)F)cc2nc(NC(=O)c3cccnc3)nn12

>  <Val>
80.8

$$$$
>  <Smiles text>
C=CC1=C(C(=O)O)N2C(=O)[C@@H](NC(=O)/C(=N\O)c3csc(N)n3)[C@H]2SC1

>  <Val>
110

$$$$
>  <Smiles text>
C\C1=C\N([C@H]2C[C@H](N=[N+]=[N-])[C@@H](CO)O2)C(=O)NC1=O

>  <Val>
29.7

$$$$
>  <Smiles text>
CCN(CC)C(=S)SSC(=S)N(CC)CC

>  <Val>
5.58

$$$$
>  <Smiles text>
O=C(/C=C/c1cccc([S+](=O)([O-])Nc2ccccc2)c1)NO

>  <Val>
88

$$$$

What is its cell viability for NOMO1? Entry: Cn1cc(-c2ccc3nnc(C(F)(F)c4ccc5ncccc5c4)n3n2)cn1
95.4

What is its cell viability for NOMO1? Entry: Cc1cc(Nc2nc(N[C@@H](C)c3ncc(F)cn3)ncc2Cl)n[nH]1
19.9

What is its cell viability for NOMO1? Entry: Cc1cccc(C)c1OCC(=O)N[C@@H](Cc1ccccc1)[C@@H](O)C[C@H](Cc1ccccc1)NC(=O)[C@H](C(C)C)N1CCCNC1=O
91.4

====

Tested on: SEM cells
Method notes: cell viability relative to DMSO control; higher = less cytotoxic
Experimental context: RPMI 5 mM glucose + 10% dialyzed FBS; 48 h; 15.4 µM
Measured parameter: cell viability

>  <Smiles text>
CC(=O)OCC(=O)[C@@]12\N=C(C)/O[C@@H]1C[C@H]3[C@@H]4CCC/5=C/C(=O)/C=C\[C@]5(C)[C@H]4[C@@H](O)C[C@]23C

>  <cell viability>
79.8%

$$$$
>  <Smiles text>
CCOc1ccc(Nc2nc(-c3c(C)nc4ccccn34)cs2)cc1

>  <cell viability>
19.7%

$$$$

Now let's try a different one.
Returns the measured cell viability for the input compound. Input: CC\1=C(C(=O)N(\C=C1)C2=CC=C(C=C2)C3=NC=CO3)/C4=CC5=CN=C(N)N=C5C=C4
20.4%

====

Test system: NOMO1
Method notes: AUC of viability dose-response curve (% viability x log10 dose units); higher = less sensitive
Experimental context: RPMI 5 mM glucose + 10% FBS; 48 h
Mark yes (1) for AUC of viability dose-response curve under 400, no (0) if at or over.

Known results for compounds:
>  <Compound>
O=C(NC[C@H]1CN(c2ccc(N3CCOCC3=O)cc2)C(=O)O1)c1ccc(Cl)s1

>  <Assayed system>
NOMO1

>  <Class name>
yes (1)

$$$$
>  <Compound>
Cc1ncc(OC[C@@]2(c3cccc(F)c3)C[C@H]2C(=O)Nc2ccc(F)cn2)c(C)n1

>  <Assayed system>
NOMO1

>  <Class name>
no (0)

$$$$
>  <Compound>
Cc1cccc(-c2nn(C(=S)Nc3ccccc3)cc2-c2ccnc3ccccc23)n1

>  <Assayed system>
NOMO1

>  <Class name>
no (0)

$$$$
>  <Compound>
C[C@@]12O[C@@H](C[C@]1(O)CO)n1c3ccccc3c3c4c(c5c6ccccc6n2c5c31)CNC4=O

>  <Assayed system>
NOMO1

>  <Class name>
yes (1)

$$$$
>  <Compound>
CC(C)[C@@H](C[S+](=O)([O-])C(C)C)N1C(=O)[C@@](C)(CC(=O)O)C[C@H](c2cccc(Cl)c2)[C@H]1c1ccc(Cl)cc1

>  <Assayed system>
NOMO1

>  <Class name>
yes (1)

$$$$
>  <Compound>
OCc1ccc(-c2nn(Cc3ccccc3)c3ccccc23)o1

>  <Assayed system>
NOMO1

>  <Class name>
no (0)

$$$$

Does this compound meet the criterion AUC of viability dose-response curve < 400? O=C(Nc1nc2ccccc2n1CCN1CCOCC1)c1cccc([N+](=O)[O-])c1
no (0)

Does this compound meet the criterion AUC of viability dose-response curve < 400? CCC1(c2ccc(N)cc2)CCC(=O)NC1=O (centres undefined)
no (0)

Does this compound meet the criterion AUC of viability dose-response curve < 400? COc1cc(C)c(Sc2cnc(NC(=O)c3ccc(CNC(C)C(C)(C)C)cc3)s2)cc1C(=O)N1CCN(C(C)=O)CC1 (centres undefined)
no (0)
